Please provide measured self-cleavage kobs at 10000 uM GlcN6P for the entries that follow.
B1: glmS ribozyme (parent)
chain: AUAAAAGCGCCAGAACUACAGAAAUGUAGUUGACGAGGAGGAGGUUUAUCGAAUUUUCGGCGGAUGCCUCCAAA

variants of: B1; assay: self-cleavage kobs at 10000 uM GlcN6P; higher = faster cleavage; RNA array; conditions: with glucosamine-6-phosphate
Variants at the floor of the assay were thinned out.

Please look at the items below and tell me self-cleavage kobs at 10000 uM GlcN6P for each one, in order.
1. AUAAAAGCGCCAGAACUACAGAAAUGUAGUUGACGAGGAGGAGGUUUAUCGAAAUAUCGGCGGAUGCCUCCAAA
2. AUAAAAGCGCCAGAAGUACAGAAAUGUAGUUGACGAGGAAGAGGUUUAUCGAAUUUUCGGCGGAUGCCUCCAAA
3. AUAAAAGCGCCAGAAAUACAGAAAUGUAGUUGACGAGGAGGAGGUGUAUCGAAUUUUCGGCGGAUGCCUCCAAA
4. AUAAAAGCGCCAGAAGUACAGAAAUGUAGUUGACGAGGAGGAGGUUUAUCGAAUUUUCGGCGGGUGCCUCCAAA
5. AUAAAUGCGCCAGAACUACAGAAAUGUAGUCGACGAGGAGGAGGUUUAUCGAAUUUUCGGCGGAUGCCUCCAAA
6. AUAAAAGCGCCAGAACUACAGAAAUGUAGUUGACGAGGUGGAGGUUUAUCGAAUAUUCGGCGGAUGCCUCCAAA

**A:**
0.00887 s⁻¹
0.00027 s⁻¹
0.000222 s⁻¹
0.00584 s⁻¹
2.97e-05 s⁻¹
0.0376 s⁻¹

List self-cleavage kobs at 10000 uM GlcN6P for every entry below, keeping the order given.
1. AUAAAAGCGCCAGAACUACAGAAAUGUAGUUGACGAGGAAAAGGUUUAUCGAAUGUUCGGCGGAUGCCUCCAAA
2. AUAAAAGCGCCAGCACUACAGAAAUGUAGUUGACGAGGAGGAGGUUUAUCGAAUUUACGGCGGAUGACUCCAAA
3. AUAAAAGCGCCAGAACUACAGAAAUGUAGUUGACGAGGCAGAGGUUUAUCGAAUUUUGGGCGGAUGCCUCCAAA
4. AUAAAAGCGCCAGAACUACAGAAAUGUAGUUGACGAGGAGGAGGUUUAUCGAAUUUUCGGCGGAUACCUACAAA
5. AUAAAAGCGCCAGAACUACAGAAAUGUAGUAGACGAGGAGGAGGUUUAUCGAAAUUUCGGCGGAUGCCUCCAAA
6. AUAAAAGCGCCAGAACUACAGAAAUGUAGAUGACGAGGAGGAGGUUUAUCGAAUCUUCGGCGGAUGCCUCCAAA
7. AUAAAAGCGCCAGAACUACAGAAAUGUAGUUGACGAGGAGGAGGUCUAUCGAAUAUUCGGCGGAUGCCUCCAAA
8. AUAAAAGCGCUAGAACUACAGAAAUGUAGUUGACGAGGAGGAGGUUUAUCGACUUUUCGGCGGAUGCCUCCAAA

**A:**
1: 7.52e-05 s⁻¹; 2: 3.08e-05 s⁻¹; 3: < 1e-05 s⁻¹; 4: 0.000947 s⁻¹; 5: 0.0126 s⁻¹; 6: 0.00647 s⁻¹; 7: 0.00247 s⁻¹; 8: 0.000412 s⁻¹

Values were extracted from the supplement of paper PMC7125110.
